// data source = patent US20040044075A1

# EXPERIMENTAL SYSTEM: Kallikrein (Homo sapiens, UniProt P03952)
# Sequence (P03952 whole entry): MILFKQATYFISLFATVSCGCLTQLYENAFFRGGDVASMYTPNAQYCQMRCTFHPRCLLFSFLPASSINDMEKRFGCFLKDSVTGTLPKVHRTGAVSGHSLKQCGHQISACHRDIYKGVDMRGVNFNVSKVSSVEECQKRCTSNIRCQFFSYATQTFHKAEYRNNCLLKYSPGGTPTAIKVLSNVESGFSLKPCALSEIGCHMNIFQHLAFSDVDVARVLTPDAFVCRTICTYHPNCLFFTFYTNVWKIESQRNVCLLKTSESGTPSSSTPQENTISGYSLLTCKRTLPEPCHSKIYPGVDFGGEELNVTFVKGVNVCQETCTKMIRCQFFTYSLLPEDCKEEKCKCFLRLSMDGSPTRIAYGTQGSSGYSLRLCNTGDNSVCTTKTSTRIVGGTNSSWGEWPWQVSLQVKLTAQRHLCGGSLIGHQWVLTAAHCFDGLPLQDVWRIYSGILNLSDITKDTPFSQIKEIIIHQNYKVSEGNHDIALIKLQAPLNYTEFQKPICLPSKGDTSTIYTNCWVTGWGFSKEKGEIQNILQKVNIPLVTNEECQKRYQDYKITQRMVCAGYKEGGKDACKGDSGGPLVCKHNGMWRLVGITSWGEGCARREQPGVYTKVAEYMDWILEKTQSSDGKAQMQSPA
# EXPERIMENTAL PROTOCOL: Kallikrein inhibition assay (fluorometric, H-Pro-Phe-Arg-AMC substrate)
# Format: biochemical
# EXPERIMENTAL PARAMETERS: 24° C, HEPES pH 7.5, 5% DMSO, fluorescence after ten minutes
OBSERVED PROPERTY: IC50 (µM)
Numbers only, in µM.

Below, each entry is followed by its recorded IC50 result.
MOLECULE: COc1ccc(NC(=O)C(OC(=O)CCOc2ccccc2)c2ccc(Br)cc2)cc1 (stereo not shown)
IC50 / µM: 0.714
//
MOLECULE: COc1ccc(OC)c(C(=O)CCC(=O)OC(C(=O)NCc2cc(OC)c(OC)c(OC)c2)c2ccc3ccccc3c2)c1 (stereo not shown)
IC50 / µM: 0.247
//
MOLECULE: COc1cc(CNC(=O)C(OC(=O)CSc2nc(C)cc(C)n2)c2cccc(C#N)c2)cc(OC)c1OC (stereo not shown)
IC50 / µM: 6.47
//
MOLECULE: COc1ccc(CCNC(=O)C(OC(=O)CSc2ncccn2)c2ccc(C#N)cc2)cc1 (stereo not shown)
IC50 / µM: 0.543
//
MOLECULE: COc1ccc(CC(=O)OC(C(=O)Nc2ccc(OC)c(OC)c2)c2ccc(C#N)cc2)cc1 (stereo not shown)
IC50 / µM: 0.428
//
MOLECULE: COc1ccc(OC)c(C(=O)CCC(=O)OC(C(=O)NCc2cc(OC)c(OC)c(OC)c2)c2ccccc2)c1 (stereo not shown)
IC50 / µM: 1.67

# map each molecule to its IC50
1. COc1ccc(OC)c(C(=O)CCC(=O)OC(C(=O)NC2CC2)c2ccc(Br)cc2)c1 (stereo not shown)
2. N#Cc1ccc(C(OC(=O)Cc2c[nH]c3ccc(Br)cc23)C(=O)NC2CC2)cc1 (stereo not shown)
3. O=C(CCOc1ccccc1)OC(C(=O)Nc1ccc2ncccc2c1)c1ccc(Br)cc1 (stereo not shown)
4. COc1ccc(CC(=O)OC(C(=O)NCc2cc(OC)c(OC)c(OC)c2)c2ccc(C#N)cc2)cc1 (stereo not shown)
5. N#Cc1ccc(C(OC(=O)Cc2c[nH]c3ccccc23)C(=O)NC2CC2)cc1 (stereo not shown)
6. COc1ccc(CC(=O)OC(C(=O)Nc2ccc(OC)c(OC)c2)c2ccc(Br)cc2)cc1 (stereo not shown)
7. COc1cc(CNC(=O)C(OC(=O)CCC(=O)c2ccccc2)c2ccc(SC)cc2)cc(OC)c1OC (stereo not shown)
8. COc1ccc(OC)c(C(=O)CCC(=O)OC(C(=O)Nc2ccc(OC)c(OC)c2)c2ccc(Br)cc2)c1 (stereo not shown)

[0.174, 0.167, 1.34, 0.576, 3.77, 0.68, 0.874, 0.275]

# map each molecule to its IC50
1. COc1cc(CNC(=O)C(OC(=O)CCCc2ccccc2)c2cccc(C#N)c2)cc(OC)c1OC (stereo not shown)
2. COc1cc(CNC(=O)C(OC(=O)CCOc2ccccc2)c2ccc(Br)cc2)cc(OC)c1OC (stereo not shown)

1: 1.18; 2: 0.364

* * *

# EXPERIMENTAL SYSTEM: Urokinase (Homo sapiens)
# EXPERIMENTAL PROTOCOL: Urokinase assay (fluorometric, Cbz-Gly-Gly-Arg-AMC substrate)
# Assay type: biochemical
# EXPERIMENTAL PARAMETERS: 24° C, HEPES pH 7.5, 5% DMSO, fluorescence after ten minutes; read-out: IC50 (μM), urokinase inhibition
OBSERVED PROPERTY: IC50 (µM)
Numbers only, in µM.

Below, each entry is followed by its recorded IC50 result.
COMPOUND: COc1ccc(CC(=O)OC(C(=O)NCc2ccc3c(c2)OCO3)c2ccc(C#N)cc2)cc1 (stereo not drawn)
NUMERIC RESULT: 0.783
//
COMPOUND: COc1ccc(NC(=O)C(OC(=O)CSc2ncccn2)c2ccc(Br)cc2)cc1OC (stereo not drawn)
NUMERIC RESULT: 3.39
//
COMPOUND: N#Cc1ccc(C(OC(=O)Cc2c[nH]c3ccccc23)C(=O)NC2CC2)cc1 (stereo not drawn)
NUMERIC RESULT: 0.086
//
COMPOUND: COc1ccc(CCNC(=O)C(OC(=O)Cc2ccc(OC)cc2)c2ccc(C#N)cc2)cc1 (stereo not drawn)
NUMERIC RESULT: 1.22
//
COMPOUND: COc1ccc(CCNC(=O)C(OC(=O)CSc2ncccn2)c2ccc(OC)cc2)cc1 (stereo not drawn)
NUMERIC RESULT: 2.38

# map each compound to its IC50
1. N#Cc1ccc(C(OC(=O)CCC2CCCC2)C(=O)NC2CC2)cc1 (stereo not drawn)
2. COc1ccc(CCNC(=O)C(OC(=O)CSc2ncccn2)c2ccc(Br)cc2)cc1 (stereo not drawn)
3. CCSCCNC(=O)C(OC(=O)Cc1ccc(OC)cc1)c1ccc(C#N)cc1 (stereo not drawn)
4. COc1ccc(CCNC(=O)C(OC(=O)CSc2ncccn2)c2ccc(C(F)(F)F)cc2)cc1 (stereo not drawn)
5. CCOC(=O)CCNC(=O)C(OC(=O)Cc1ccc(OC)cc1)c1ccc(C#N)cc1 (stereo not drawn)
6. COc1ccc(CC(=O)OC(C(=O)Nc2ccc(OC)c(OC)c2)c2ccc(C#N)cc2)cc1 (stereo not drawn)
7. COc1ccc(C(OC(=O)CSc2ncccn2)C(=O)NCc2ccc3c(c2)OCO3)cc1 (stereo not drawn)

[0.151, 1.41, 0.628, 5.38, 1.06, 2.32, 1.37]

# map each compound to its IC50
1. COc1cc(CNC(=O)C(OC(=O)CCOc2ccccc2)c2cccc(C#N)c2)cc(OC)c1OC (stereo not drawn)
2. COc1ccc(CCNC(=O)C(OC(=O)CSc2ncccn2)c2ccc(C#N)cc2)cc1 (stereo not drawn)
3. COc1ccc(CC(=O)OC(C(=O)NC2CC2)c2ccc(C#N)cc2)cc1 (stereo not drawn)
4. COc1ccc(CC(=O)OC(C(=O)NC2CC2)c2ccccc2)cc1 (stereo not drawn)

1: 6.09; 2: 0.112; 3: 0.11; 4: 0.814

# map each compound to its IC50
1. COc1ccc(CCNC(=O)C(OC(=O)CSc2ncccn2)c2ccc3ccccc3c2)cc1 (stereo not drawn)
2. N#Cc1ccc(C(OC(=O)Cc2c[nH]c3ccc(Br)cc23)C(=O)NC2CC2)cc1 (stereo not drawn)
3. COc1ccc(CC(=O)OC(C(=O)NCc2cc(OC)c(OC)c(OC)c2)c2ccc(C#N)cc2)cc1 (stereo not drawn)
4. COc1cc(CNC(=O)C(OC(=O)CSc2ncccn2)c2cccc(C#N)c2)cc(OC)c1OC (stereo not drawn)
5. COc1cc(CNC(=O)C(OC(=O)CCC2CCCCC2)c2cccc(C#N)c2)cc(OC)c1OC (stereo not drawn)
6. N#Cc1ccc(C(OC(=O)CCC2CCCCC2)C(=O)NC2CC2)cc1 (stereo not drawn)
7. O=C(CSc1ncccn1)OC(C(=O)NCc1ccc2c(c1)OCO2)c1ccc(C(F)(F)F)cc1 (stereo not drawn)

1: 2.93; 2: 0.029; 3: 1.97; 4: 0.923; 5: 1.78; 6: 0.055; 7: 3.1

Report IC50 for N#Cc1ccc(C(OC(=O)CSc2ncccn2)C(=O)NC2CC2)cc1 (stereo not drawn) please.
0.032
